# Protocol text: In-vivo study of bioavailability in dogs of capsules filled with salts
# Test parameters: dog, plasma, po, 118.6 mg salt per capsule; male dogs, dosed once orally, capsules of example 1; mean
Endpoint label: Tmax (h)
All answers are understood in h, so give the number only.

Would you kindly share the measured Tmax for Br.Cc1cc(C#N)cc(C)c1Oc1nc(Nc2ccc(C#N)cc2)nc(N)c1Br [HBr salt] ?
4.5
